Cited source: PubChem BioAssay (NCI)

- procedure.details: NCI Yeast Anticancer Drug Screen. Data for the rad50 strain (AID 155);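 note: 0% = growth of vehicle-only cultures of the same strain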
- condition.info: S. cerevisiae rad50 strain growth inhibition; at 50.0 µM (retest, dose inferred, filed as 5.0)
This is part of a sample that, as a whole, favours compounds with a hit. Of some 79,000 tested, about 15% had one in any assay. Calls of active or inactive are those of the source. Cut-off read from the data, not from the text of the source: active = growth inhibition above about 70%; inactive = the rest.
Write down the outcome that applies. Available outcomes: TRUE = active, FALSE = inactive

See these solved cases before continuing.
INSERT INTO results (compound, label) VALUES
  ('CC(C)(C)C(=O)CC(c1ccccc1)c1ccccc1', 'FALSE'),
  ('CC1(C)CCC2(C(=O)O)C(O)CC3(C)C(=CCC4C5(C)CCC(OC6OCC(O)C(O)C6OC6OCC(O)C(O)C6OC6OCC(O)C(OC7OC(CO)C(O)C(O)C7O)C6O)C(C)(C)C5CCC43C)C2C1 (stereo not given)', 'TRUE'),
  ('Cn1c(COC(=O)NC2CCCCC2)c(COC(=O)NC2CCCCC2)c2ccc3cc(Cl)c(Cl)cc3c21', 'FALSE'),
  ('Oc1ccccc1N=Cc1ccccc1', 'TRUE');

Inquiry: Answer briefly: the call reported for CC(C)(C)c1ccc(O)c(Br)c1 in this assay.
Reply text: FALSE

Inquiry: What was the test verdict on COC(=O)c1ccc(=O)c2nc3/c(=C/O)c(O)cc(=O)c3[nH]c12 ?
Reply text: TRUE

Inquiry: Recorded call for Cc1ccc2cccc(OC(=O)Nc3cccc(C(F)(F)F)c3)c2n1 ?
Reply text: TRUE

Inquiry: What outcome does the record of this test show for O=[N+]([O-])c1cc(-c2ccccc2)c(O)c([N+](=O)[O-])c1 ?
Reply text: TRUE

Inquiry: Give the logged outcome of this assay for the following compound: COc1ccc(/C(C#N)=C/c2cccc(N)c2)cc1
Reply text: FALSE

Inquiry: Could you please tell me the result logged for COc1ccc(C(Cn2ccnc2)Sc2ccc(Cl)c(Cl)c2)cc1 (stereo not given) in this assay?
Reply text: TRUE

* * *

- procedure.details: NCI Yeast Anticancer Drug Screen. Data for the mlh1 rad18 strain (AID 175)
- condition.info: S. cerevisiae mlh1 rad18 strain growth inhibition; at 50.0 µM; stronger effect = higher value
The panel holds about 79,000 compounds, 15% with a hit somewhere; the sample as a whole holds those more often.
reported.endpoint: growth inhibition (%)
The response must be a number in % with no trailing unit.

INSERT INTO results (compound, reading) VALUES
  ('Cc1cc(C)c([I+]c2c(C)cc(C)cc2C)c(C)c1', 71);

// growth inhibition value for COc1ccc2c(c1OC)OCC(CN(C)C)C2=O (configuration not stated) : 99.2

For reference, reported growth inhibition for CCOC(=O)c1cc(CC)sc1NC(=O)CC(C)=O stands at 61.1

GET /value?item= S=C=Nc1ccc(N2CCOCC2)cc1 &field=growth inhibition returns 99.2

Entry c1ccc2sc(SSN3CC4CCC(CC4)C3)nc2c1 — recorded growth inhibition = 80.7

growth inhibition reading for Cc1cc(=O)oc2cc(O)cc(O)c12 : 6.8

In plain terms, C/C(=N/NC(N)=S)c1ccc(C)cc1 has a documented growth inhibition of 66.1

* * *

- procedure.details: NCI Yeast Anticancer Drug Screen. Data for the rad50 strain (AID 155);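 note: 0% = growth of vehicle-only cultures of the same strain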
- condition.info: S. cerevisiae rad50 strain growth inhibition; at 50.0 µM; stronger effect = higher value
The panel holds about 79,000 compounds, 15% with a hit somewhere; the sample as a whole holds those more often.
reported.endpoint: growth inhibition (%)
Only the number, expressed in %, is required.

Solved entries:
INSERT INTO assay_data (molecule, reported_endpoint, reading) VALUES
  ('O=C1C=CC(=O)c2c(O)c(CO)c(CO)c(O)c21', 'growth inhibition', 75.4),
  ('Cc1c2c(c(C)c3c[n+](C)ccc13)Oc1ccccc1O2', 'growth inhibition', 25.4),
  ('CCOC(=O)C1C(C(C)C)C2(C#N)C(=N)OC1(C)C2(C#N)C#N (stereo not drawn)', 'growth inhibition', 44.8),
  ('CCCC[n+]1c(/C=C\c2c(OC)cc(OC)cc2OC)ccc2ccccc21', 'growth inhibition', 88.8),
  ('O=S(=O)(O)c1cnccn1', 'growth inhibition', 91.3);

For this molecule ( O=C1C=CC(O)=CC1=P(c1ccccc1)(c1ccccc1)c1ccccc1 ), measured growth inhibition is 48.1

The recorded growth inhibition for entry COc1ccc2c(c1)c(CC(=O)O)c(C)n2C(=O)c1ccc(Cl)cc1 equals 82.2

Lab note: measured growth inhibition of CN(C)c1ccc(/C=C/c2nccc3ccccc23)cc1 was 91
